From: patent US20220372138A1

TGT: T1, ECD of murine IGSF11, recombinant biotinylated (mouse, UniProt P0C673 23-240)
T1 construct: whole entry named; also called Mouse IGSF11
T1 sequence: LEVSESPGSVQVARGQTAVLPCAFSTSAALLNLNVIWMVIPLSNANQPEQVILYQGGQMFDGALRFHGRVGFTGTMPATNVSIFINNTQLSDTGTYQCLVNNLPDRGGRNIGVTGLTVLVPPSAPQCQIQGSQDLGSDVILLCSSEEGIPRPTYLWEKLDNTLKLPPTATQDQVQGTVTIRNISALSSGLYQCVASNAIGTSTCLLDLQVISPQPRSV
EXPERIMENT_DESCRIPTION: ELISA RFU 0.1-0.5
MEASUREMENT_KIND: ELISA binding signal (RFU)

1) A-021 (scFv format) (scFv, V domains shown, scFv) VH: QVQLVQSGAEVKKPGASVKVSCKASGYTFTSYGISWVRQAPGQGLEWMGWISAYNGNTNYAQKLQGRVTMTTDTSTSTAYMELRSLRSDDTAVYYCARVPAWSGQFDYWGQGTLVTVSS VL: QSALTQPASVSGSPGQSITISCTGTSSDVGGYNYVSWYQQHPGKAPKLMIYEVTNRPSGVSDRFSGSKSANTASLTISELQAEDEAVYYCNSYTSGPTYVLFGGGTQLTVL = 0.1 to 0.5 rfu
2) A-028 (scFv format) (scFv, V domains shown, scFv) VH: QVQLVQSGAEVKKPGSSVKVSCKASGGTFSSYAISWVRQAPGQGLEWMGGIIPIFGTANYAQKFQGRVTITADESTSTAYMELSSLRSEDTAVYYCARVGVEYQLLWYFDYWGQGTLVTVSS VL: DIQMTQSPSSLSASVGDRVTLTCRTSQTISNYLNWYQQKPGKAPKLLVYAASNLQSWVPSRFSGSGSGTDFTLTISSLQPEDFATYYCQQSYNASFGGGTKVEFK = 0.1 to 0.5 rfu

Okay, now this binder:
Measured ELISA binding signal (RFU) of A-027 (scFv format) (scFv, V domains shown, scFv) VH: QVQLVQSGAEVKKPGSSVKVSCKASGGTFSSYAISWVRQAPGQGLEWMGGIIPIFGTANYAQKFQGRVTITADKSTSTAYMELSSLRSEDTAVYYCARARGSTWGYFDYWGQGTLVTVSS VL: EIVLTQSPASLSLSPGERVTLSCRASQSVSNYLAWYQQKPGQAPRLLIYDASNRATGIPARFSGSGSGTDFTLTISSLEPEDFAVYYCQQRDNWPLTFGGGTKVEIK : 0.1 to 0.5 rfu
